Where these numbers come from: ChEMBL document CHEMBL4831529

- study-target: C-X-C chemokine receptor type 4 (Homo sapiens) (UniProt P61073)
- Sequence (P61073 whole entry): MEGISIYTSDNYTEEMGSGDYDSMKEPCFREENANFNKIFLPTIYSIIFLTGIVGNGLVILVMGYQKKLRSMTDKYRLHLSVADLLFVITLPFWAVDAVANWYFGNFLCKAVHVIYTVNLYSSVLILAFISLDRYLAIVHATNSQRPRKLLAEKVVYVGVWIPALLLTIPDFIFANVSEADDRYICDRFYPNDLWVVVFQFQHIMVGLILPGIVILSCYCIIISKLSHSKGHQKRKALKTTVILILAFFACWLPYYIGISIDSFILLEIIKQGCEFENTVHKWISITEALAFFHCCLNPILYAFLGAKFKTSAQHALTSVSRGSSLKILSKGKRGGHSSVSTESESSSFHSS
- test-details: Inhibition of human CXCR4-mediated chemotaxis expressed in mouse 300-19 Pre-B cells assessed as reduction in CXCL12-induced cell migration at 100 uM
- Format: functional, cell-based
Activity calls are given as the source filed them. No cut-off for these calls is given here.
Can you answer with just one of these options? active, inactive

INSERT INTO measurements (substance, group_label) VALUES
  ('H-YHICWYGDY-OH', 'active'),
  ('H-HWTLANWCR-OH', 'inactive'),
  ('H-WISNWILMW-OH', 'active');

In the following, a different substance is considered.
# outcome recorded in this test, key = `H-GYHYERWIH-OH`
inactive
